Source listed as ChEMBL document CHEMBL1144013.

We begin with a simple list: items and their reported log10(Ki).
molecular target: Cannabinoid receptor 2 (Homo sapiens, UniProt P34972); test: Displacement of [3H]CP-55940 from human recombinant CB2 receptor expressed in HEK cells; format: cell-based, HEK293; details: read-out: Ki
Sequence (P34972 whole entry): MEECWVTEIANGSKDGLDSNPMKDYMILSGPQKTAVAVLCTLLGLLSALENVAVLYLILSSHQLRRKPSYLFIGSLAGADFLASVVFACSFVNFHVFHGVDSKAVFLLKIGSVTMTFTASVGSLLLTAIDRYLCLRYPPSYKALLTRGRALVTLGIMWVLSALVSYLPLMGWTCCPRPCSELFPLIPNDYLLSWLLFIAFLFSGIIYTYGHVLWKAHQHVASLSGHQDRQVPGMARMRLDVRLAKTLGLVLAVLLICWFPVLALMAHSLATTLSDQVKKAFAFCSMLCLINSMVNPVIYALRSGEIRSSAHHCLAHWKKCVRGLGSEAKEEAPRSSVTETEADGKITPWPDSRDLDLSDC
readout.kind: log10(Ki) (log10 of the value in nM)

[
  {
    "compound": "CC1(C)C(C(=O)c2cn(CC3CCOCC3)c3ccccc23)C1(C)C",
    "experimental.result": -0.68
  },
  {
    "compound": "CC1(C)C(C(=O)c2cn(CC3CCOCC3)c3cc(OCc4ccccc4)ccc23)C1(C)C",
    "experimental.result": -0.06
  },
  {
    "compound": "COc1cc2c(cc1OCc1ccccc1)c(C(=O)C1C(C)(C)C1(C)C)cn2CC1CCOCC1",
    "experimental.result": 0.26
  },
  {
    "compound": "CC1(C)C(C(=O)c2cn(CC3CCOCC3)c3ccc(CO)cc23)C1(C)C",
    "experimental.result": 2.05
  },
  {
    "compound": "CC1(C)C(C(=O)c2cn(CC3CCOCC3)c3ccc(-c4ccccc4)cc23)C1(C)C",
    "experimental.result": 1.76
  },
  {
    "compound": "CC1(C)C(C(=O)c2cn(CCN3CCOCC3)c3cc(OCc4ccccc4)ccc23)C1(C)C",
    "experimental.result": 0.46
  },
  {
    "compound": "CC1(C)C(C(=O)c2cn(CCN3CCOCC3)c3ccccc23)C1(C)C",
    "experimental.result": 0.64
  },
  {
    "compound": "CC1(C)C(C(=O)c2cn(CC3CCOCC3)c3cc(C#N)ccc23)C1(C)C",
    "experimental.result": 0.70
  },
  {
    "compound": "CN1CCCCC1Cn1cc(C(=O)c2cc([N+](=O)[O-])ccc2I)c2ccccc21 (stereo not given)",
    "experimental.result": 1.06
  }
]
